Would you mind telling me the reported IC50 of each entry?
# TGT: UniProt Q92769
# TEST METHOD NOTES: in vitro biochemical HDAC inhibition assay
# CONDITIONS: Table 3; read-out: IC50 HDAC2
// units = nM; emit number, no label

Prompt: In one line, give reported IC50 of the entry `CC(C)[C@@H](C(=O)N1CCC(C)(Nc2ncc(C(=O)NO)cn2)CC1)c1ccccc1` .
Response: 103

Prompt: Quote IC50 reported for `O=C(NO)c1cnc(NC2(c3ccccc3)CCN(C(=O)Nc3ccc(Cl)c(Cl)c3)CC2)nc1` please.
Response: 177

---

# TGT: HDAC2 (Homo sapiens, UniProt Q92769)
# Sequence (Q92769 whole entry): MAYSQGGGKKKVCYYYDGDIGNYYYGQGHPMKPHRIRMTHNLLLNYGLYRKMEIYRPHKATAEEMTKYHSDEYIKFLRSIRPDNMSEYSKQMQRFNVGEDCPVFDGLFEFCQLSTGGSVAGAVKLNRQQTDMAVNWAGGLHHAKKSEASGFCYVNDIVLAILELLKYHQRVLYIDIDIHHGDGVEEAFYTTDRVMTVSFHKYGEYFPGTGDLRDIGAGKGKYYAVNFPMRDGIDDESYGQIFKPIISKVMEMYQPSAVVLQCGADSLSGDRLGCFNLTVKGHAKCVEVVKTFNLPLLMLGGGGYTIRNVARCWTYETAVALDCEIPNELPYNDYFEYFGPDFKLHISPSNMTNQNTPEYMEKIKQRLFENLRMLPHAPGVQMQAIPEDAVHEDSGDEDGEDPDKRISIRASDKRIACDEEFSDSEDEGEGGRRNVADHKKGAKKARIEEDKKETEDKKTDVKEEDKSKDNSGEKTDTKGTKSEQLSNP
# TEST METHOD NOTES: in vitro biochemical HDAC inhibition assay
# CONDITIONS: pre-incubation time of 24 hours; FIG. 9A, 17B; read-out: IC50 against HDAC2
QUANTITY NAME: pIC50
pIC50 here: minus log base 10 of the concentration, concentration in moles per litre.

Prompt: Entry Nc1ccc(-c2cccs2)cc1NC(=O)c1ccc2nc(N3CCNCC3)ccc2c1 [Compound 001] needs its pIC50 filled in; supply it.
Response: 7.74
